Taken from ChEMBL document CHEMBL3621146.

protocol.description: Half life in Wistar Han rat at 0.5 mg/kg, iv LC-MS/MS method
Assay type: ADME, organism-based
condition.details: Wistar Han, in vivo
measure.name: half-life (min)
I only need the number, in min, no unit after it.

[
  {
    "molecule": "COc1cnc(N2CCC([C@H]3C[C@H]3COCc3ccc(S(C)(=O)=O)cc3F)CC2)nc1",
    "half-life (min)": 36
  },
  {
    "molecule": "CCc1cnc(N2CCC([C@H]3C[C@H]3COCc3ccc(S(C)(=O)=O)cn3)CC2)nc1",
    "half-life (min)": 78
  },
  {
    "molecule": "CC(C)c1noc(N2CCC([C@H]3C[C@H]3COCc3ccc(S(C)(=O)=O)cc3F)CC2)n1",
    "half-life (min)": 132
  }
]

Please give the measured half-life for this molecule: CCc1cnc(N2CCC([C@H]3C[C@H]3COCc3ccc(S(C)(=O)=O)c(F)c3)CC2)nc1
60

Now give it for CS(=O)(=O)c1ccc(COC[C@@H]2C[C@@H]2C2CCN(c3ncc(Cl)cn3)CC2)nc1 too.
108
